- MEASURED_TARGET: Ubiquitin carboxyl-terminal hydrolase 17-like protein 5 (Homo sapiens)
- PROCEDURE_DETAILS: ubiquitin-specific protease 17 DUB inhibitors, concentration-effect assay, cell-free, verification of initial screening actives (AID 1645864)
- STUDY_CONDITIONS: purified USP17, ubiquitin-rhodamine cleavage fluorescence, 3 h
Calls of active or inactive are those of the source.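 How the source made its calls: active means maximal inhibition of USP17 at or above 30% in the confirmation dose-response, a value not among the printed readouts; inactive means the rest.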
Outcome codes: class 1 (active), class 0 (inactive)

COMPOUND: COC(=O)c1ccc2c(=O)n(CCCCCC(=O)NCc3cccc(Cl)c3)c(=O)[nH]c2c1
MEASURED_TARGET: Ubiquitin carboxyl-terminal hydrolase 17-like protein 5 (Homo sapiens)
CLASS: class 1
--
COMPOUND: CCOc1ccc(CCNC(=O)CCC(=O)Nc2ccc3nc(N4CCN(C)CC4)cc(C)c3c2)cc1OCC
MEASURED_TARGET: Ubiquitin carboxyl-terminal hydrolase 17-like protein 5 (Homo sapiens)
CLASS: class 0
--
COMPOUND: COc1cccc2c1OCC(NS(=O)(=O)c1cc(C)ccc1C)C2 (stereo not drawn)
MEASURED_TARGET: Ubiquitin carboxyl-terminal hydrolase 17-like protein 5 (Homo sapiens)
CLASS: class 0
--
COMPOUND: O=C(COc1ccc(Cl)cc1)Nc1noc(-c2ccccc2)n1
MEASURED_TARGET: Ubiquitin carboxyl-terminal hydrolase 17-like protein 5 (Homo sapiens)
CLASS: class 1
--
COMPOUND: O=C(Cn1cnc(-c2noc(-c3ccncc3)n2)c1)N1CCN(c2ccccc2F)CC1
MEASURED_TARGET: Ubiquitin carboxyl-terminal hydrolase 17-like protein 5 (Homo sapiens)
CLASS: class 0
--
COMPOUND: Cc1ccccc1NC(=O)C(C)n1c(=O)cc(-c2ccccc2)c2c(C)nn(C)c21 (stereo not drawn)
MEASURED_TARGET: Ubiquitin carboxyl-terminal hydrolase 17-like protein 5 (Homo sapiens)
CLASS: class 1
--
COMPOUND: Cn1ncc2c(=O)n(Cc3cccc(Cl)c3)cnc21
MEASURED_TARGET: Ubiquitin carboxyl-terminal hydrolase 17-like protein 5 (Homo sapiens)
CLASS: class 0
--
COMPOUND: Cc1ccc(-n2c(-c3ccccc3)cn3c4c(=O)[nH]c(=O)n(C)c4nc23)cc1C
MEASURED_TARGET: Ubiquitin carboxyl-terminal hydrolase 17-like protein 5 (Homo sapiens)
CLASS: class 1
--
COMPOUND: CC(=O)c1ccccc1NC(=O)COc1ccc(-c2ccc(C#N)cc2)cc1
MEASURED_TARGET: Ubiquitin carboxyl-terminal hydrolase 17-like protein 5 (Homo sapiens)
CLASS: class 1
--
COMPOUND: Cc1ccc2[nH]c(=O)c(CN(CC3COCCO3)S(=O)(=O)c3ccc(F)cc3)cc2c1 (stereo not drawn)
MEASURED_TARGET: Ubiquitin carboxyl-terminal hydrolase 17-like protein 5 (Homo sapiens)
CLASS: class 1
--
COMPOUND: COc1ccc(Cl)cc1-n1nnc(C(=O)N2CCc3ccccc3C2)c1C
MEASURED_TARGET: Ubiquitin carboxyl-terminal hydrolase 17-like protein 5 (Homo sapiens)
CLASS: class 0
--
COMPOUND: CCOC(=O)c1nc(Nc2ccc(OC)c(Cl)c2)c2ccccc2n1
MEASURED_TARGET: Ubiquitin carboxyl-terminal hydrolase 17-like protein 5 (Homo sapiens)
CLASS: class 1
--
COMPOUND: Cc1ccccc1C(=O)c1ccc(C(=O)NC2CCCCCC2)[nH]1
MEASURED_TARGET: Ubiquitin carboxyl-terminal hydrolase 17-like protein 5 (Homo sapiens)
CLASS: class 1
--
COMPOUND: COCCCN1CCS(=O)(=O)c2c(Cl)c(F)nc(Oc3ccc(C#N)cc3)c21
MEASURED_TARGET: Ubiquitin carboxyl-terminal hydrolase 17-like protein 5 (Homo sapiens)
CLASS: class 0
--
COMPOUND: COc1ccc(CCC(=O)Nc2ccc3c(c2)Sc2ncccc2C(=O)N3C)cc1
MEASURED_TARGET: Ubiquitin carboxyl-terminal hydrolase 17-like protein 5 (Homo sapiens)
CLASS: class 0
--
COMPOUND: C=C[C@]1(C)C=C2C(=O)[C@]3(O)OC(=O)[C@@]4(CCCC(C)(C)[C@H]34)[C@@]2(O)CC1
MEASURED_TARGET: Ubiquitin carboxyl-terminal hydrolase 17-like protein 5 (Homo sapiens)
CLASS: class 1
--
COMPOUND: O=C(CSc1nnc(-c2ccc3c(c2)OCO3)n1-c1ccccc1)OCC(=O)c1ccccc1
MEASURED_TARGET: Ubiquitin carboxyl-terminal hydrolase 17-like protein 5 (Homo sapiens)
CLASS: class 0
--
COMPOUND: COc1cc(=O)c(C(=O)Nc2ccc(C#N)cc2)nn1-c1cccc(F)c1
MEASURED_TARGET: Ubiquitin carboxyl-terminal hydrolase 17-like protein 5 (Homo sapiens)
CLASS: class 1
--
COMPOUND: CC(C)CC[C@H]1O[C@@H](CC(=O)O)Cc2cc3c(c(O)c21)C(=O)c1sc(=O)n(C)c1C3=O
MEASURED_TARGET: Ubiquitin carboxyl-terminal hydrolase 17-like protein 5 (Homo sapiens)
CLASS: class 1
--
COMPOUND: Fc1ccc(-c2noc(-c3nnc(NCc4cccnc4)c4ccccc34)n2)cc1
MEASURED_TARGET: Ubiquitin carboxyl-terminal hydrolase 17-like protein 5 (Homo sapiens)
CLASS: class 1
--
COMPOUND: CC(C)(C)c1cc(CCC(=O)Nc2c3c(nc4c2CCC4)CCCC3)cc(C(C)(C)C)c1O
MEASURED_TARGET: Ubiquitin carboxyl-terminal hydrolase 17-like protein 5 (Homo sapiens)
CLASS: class 0
--
COMPOUND: c1ccc(CCN2CCc3nc4cccnc4cc3C2)nc1
MEASURED_TARGET: Ubiquitin carboxyl-terminal hydrolase 17-like protein 5 (Homo sapiens)
CLASS: class 0
--
COMPOUND: COc1ccc(-n2ccc(=O)c(-c3nc(-c4ccccc4F)no3)n2)cc1OC
MEASURED_TARGET: Ubiquitin carboxyl-terminal hydrolase 17-like protein 5 (Homo sapiens)
CLASS: class 0
--
COMPOUND: CN(C)c1cc(-n2cnc(C(=O)NCc3ccccc3Cl)c2)ncn1
MEASURED_TARGET: Ubiquitin carboxyl-terminal hydrolase 17-like protein 5 (Homo sapiens)
CLASS: class 1
--
COMPOUND: c1ccc2c(-c3nc(C4CC4)no3)nnc(NCc3ccncc3)c2c1
MEASURED_TARGET: Ubiquitin carboxyl-terminal hydrolase 17-like protein 5 (Homo sapiens)
CLASS: class 1
--
COMPOUND: O=C(CNc1nc(Nc2ccccc2F)nc(Nc2ccccc2F)n1)Nc1ccccc1
MEASURED_TARGET: Ubiquitin carboxyl-terminal hydrolase 17-like protein 5 (Homo sapiens)
CLASS: class 1
--
COMPOUND: O=C(COC(=O)Cn1cnc2ccccc21)Nc1ccc2c(c1)OCCO2
MEASURED_TARGET: Ubiquitin carboxyl-terminal hydrolase 17-like protein 5 (Homo sapiens)
CLASS: class 0
--
COMPOUND: O=C(Nc1ccc(Cl)cc1F)c1cc(-c2ccccn2)n[nH]1
MEASURED_TARGET: Ubiquitin carboxyl-terminal hydrolase 17-like protein 5 (Homo sapiens)
CLASS: class 1
--
COMPOUND: CC(=O)c1ccc(NC(=O)CC2C(=O)Nc3nc4ccccc4n32)cc1 (stereo not drawn)
MEASURED_TARGET: Ubiquitin carboxyl-terminal hydrolase 17-like protein 5 (Homo sapiens)
CLASS: class 1
--
COMPOUND: CCOc1ccc2c(c1)c(=O)c(C(=O)c1ccc(C)cc1)cn2CC(=O)Nc1ccc(OC)c(OC)c1
MEASURED_TARGET: Ubiquitin carboxyl-terminal hydrolase 17-like protein 5 (Homo sapiens)
CLASS: class 1
--
COMPOUND: Cc1cccc(NC(=O)Cn2c(=O)n(Cc3ccc(F)cc3)c(=O)c3sccc32)c1
MEASURED_TARGET: Ubiquitin carboxyl-terminal hydrolase 17-like protein 5 (Homo sapiens)
CLASS: class 1
--
COMPOUND: CCOC(=O)c1cccc(NC(=O)Nc2cccn3nc(C)nc23)c1
MEASURED_TARGET: Ubiquitin carboxyl-terminal hydrolase 17-like protein 5 (Homo sapiens)
CLASS: class 0
--
COMPOUND: COc1ccc(OC)c(NC(=O)CSc2nc(C)nc3c2oc2ccccc23)c1
MEASURED_TARGET: Ubiquitin carboxyl-terminal hydrolase 17-like protein 5 (Homo sapiens)
CLASS: class 1
